- test target: HLA-B*07:02
- test description: IEDB peptide-MHC binding, purified MHC/direct/fluorescence; filed as Kd, often an IC50 or EC50 that approximates it; bounds were set here for any values at or beyond the usual limits of such assays
- condition label: source organism: Mycobacterium tuberculosis
endpoint label: Kd (nM)
Give the value in nM but do not write nM after it.

input: Give me measured Kd, please, for this sequence: ALRQARAAF
output: 8.9

* * *

- test target: HLA-B*40:01
- test description: IEDB peptide-MHC binding, purified MHC/competitive/radioactivity; filed as Kd, often an IC50 or EC50 that approximates it; bounds were set here for any values at or beyond the usual limits of such assays
- condition label: source organism: Mammarenavirus lassaense
endpoint label: Kd

input: Give me measured Kd, please, for this sequence: DEILLDGGAS
output: ≥ 42.9 µM

* * *

- test target: HLA-A*02:01
- test description: IEDB peptide-MHC binding, purified MHC/competitive/fluorescence; filed as Kd, often an IC50 or EC50 that approximates it; bounds were set here for any values at or beyond the usual limits of such assays
- condition label: source organism: Mycobacterium tuberculosis C
pKd: −log10 of the molar value.
endpoint label: pKd

input: Give me measured pKd, please, for this sequence: SLVAIHLAC
output: ≤ 4.70

* * *

- test target: HLA-B*27:05
- test description: IEDB peptide-MHC binding, purified MHC/direct/fluorescence; filed as Kd, often an IC50 or EC50 that approximates it; bounds were set here for any values at or beyond the usual limits of such assays
- condition label: source organism: Rhizobium wenxiniae
pKd: −log10 of the molar value.
endpoint label: pKd

input: Give me measured pKd, please, for this sequence: FHLRSRFAF
output: ≤ 4.70

* * *

- test target: HLA-A*02:16
- test description: IEDB peptide-MHC binding, purified MHC/competitive/fluorescence; filed as Kd, often an IC50 or EC50 that approximates it; bounds were set here for any values at or beyond the usual limits of such assays
- condition label: source organism: Influenza A virus (A/Gf/HK/SSP607/2003(H9N2))
endpoint label: Kd

input: Look up and report measured Kd (HLA-A*02:16) for the following sequence: AMITYITRK
output: ≥ 20 µM

* * *

- test target: HLA-B*57:01
- test description: IEDB peptide-MHC binding, purified MHC/competitive/radioactivity; filed as Kd, often an IC50 or EC50 that approximates it; bounds were set here for any values at or beyond the usual limits of such assays
- condition label: source organism: Dengue virus 4 Philippines/H241/1956
endpoint label: pKd
# pKd = -log10(concentration in molar units)

INSERT INTO results (seq_string, test_target, quantitative_result) VALUES
  ('LSSTRVPNYN', 'HLA-B*57:01', 5.22);

Proceeding to the next sequence to report its pKd.
input: Give me measured pKd, please, for this sequence: TASGKLVTQW
output: 5.96

* * *

- test target: HLA-A*68:02
- test description: IEDB peptide-MHC binding, purified MHC/competitive/radioactivity; filed as Kd, often an IC50 or EC50 that approximates it; bounds were set here for any values at or beyond the usual limits of such assays
- condition label: source organism: Lassa virus Josiah
endpoint label: pKd
# pKd = -log10(concentration in molar units)

input: Give me measured pKd, please, for this sequence: LMSIISTFHL
output: 6.44

* * *

- test target: HLA-B*35:01
- test description: IEDB peptide-MHC binding, purified MHC/direct/fluorescence; filed as Kd, often an IC50 or EC50 that approximates it; bounds were set here for any values at or beyond the usual limits of such assays
- condition label: source organism: Listeria monocytogenes serotype 4b str. H7858
endpoint label: Kd

input: Look up and report measured Kd (HLA-B*35:01) for the following sequence: LMKAPGTYH
output: ≥ 20 µM

* * *

- test target: HLA-B*40:01
- test description: IEDB peptide-MHC binding, purified MHC/direct/fluorescence; filed as Kd, often an IC50 or EC50 that approximates it; bounds were set here for any values at or beyond the usual limits of such assays
- condition label: source organism: Mycobacterium tuberculosis
endpoint label: pKd
# pKd = -log10(concentration in molar units)

input: Look up and report measured pKd (HLA-B*40:01) for the following sequence: AEAASATPL
output: 7.66

* * *

- test target: HLA-B*15:02
- test description: IEDB peptide-MHC binding, purified MHC/direct/fluorescence; filed as Kd, often an IC50 or EC50 that approximates it; bounds were set here for any values at or beyond the usual limits of such assays
- condition label: source organism: Listeria monocytogenes
endpoint label: Kd (nM)
Give the value in nM but do not write nM after it.

input: Give me measured Kd, please, for this sequence: LMKAPGTYH
output: 258

* * *

- test target: HLA-A*25:01
- test description: IEDB peptide-MHC binding, purified MHC/competitive/fluorescence; bounds were set here for any values at or beyond the usual limits of such assays
- condition label: source organism: Mus musculus
endpoint label: IC50

input: Give me measured IC50, please, for this sequence: VALFSSCPVAY
output: ≥ 20 µM

* * *

- test target: HLA-B*07:02
- test description: IEDB peptide-MHC binding, purified MHC/direct/fluorescence; filed as Kd, often an IC50 or EC50 that approximates it; bounds were set here for any values at or beyond the usual limits of such assays
- condition label: source organism: Bacillus anthracis
endpoint label: Kd

input: Look up and report measured Kd (HLA-B*07:02) for the following sequence: YFENSDLNL
output: ≥ 20 µM

* * *

- test target: HLA-B*51:01
- test description: IEDB peptide-MHC binding, purified MHC/direct/fluorescence; filed as Kd, often an IC50 or EC50 that approximates it; bounds were set here for any values at or beyond the usual limits of such assays
- condition label: source organism: Burkholderia mallei
pKd: −log10 of the molar value.
endpoint label: pKd

input: Look up and report measured pKd (HLA-B*51:01) for the following sequence: NPVDGSIWY
output: ≤ 4.70

* * *

- test target: HLA-B*18:01
- test description: IEDB peptide-MHC binding, purified MHC/competitive/fluorescence; filed as Kd, often an IC50 or EC50 that approximates it; bounds were set here for any values at or beyond the usual limits of such assays
- condition label: source organism: Brucella abortus S19
pKd: −log10 of the molar value.
endpoint label: pKd

input: Give me measured pKd, please, for this sequence: KQWIVAGAI
output: ≤ 4.70

* * *

# Kd values compiled below
- test target: HLA-A*02:16
- test description: IEDB peptide-MHC binding, purified MHC/direct/fluorescence; filed as Kd, often an IC50 or EC50 that approximates it; bounds were set here for any values at or beyond the usual limits of such assays
- condition label: source organism: Orthohantavirus andesense

INSERT INTO measurements (seq_string, result) VALUES
  ('NALEKALRW', '≥ 20 µM');

Proceeding to the next sequence to report its Kd.
input: Give me measured Kd, please, for this sequence: VSANVKGNW
output: ≥ 20 µM

* * *

- test target: HLA-A*68:02
- test description: IEDB peptide-MHC binding, purified MHC/competitive/fluorescence; filed as Kd, often an IC50 or EC50 that approximates it; bounds were set here for any values at or beyond the usual limits of such assays
- condition label: source organism: Escherichia coli
pKd: −log10 of the molar value.
endpoint label: pKd

input: Look up and report measured pKd (HLA-A*68:02) for the following sequence: EQRLIDICV
output: ≤ 4.70

* * *

# pKd values compiled below
- test target: HLA-A*32:01
- test description: IEDB peptide-MHC binding, purified MHC/competitive/radioactivity; filed as Kd, often an IC50 or EC50 that approximates it; bounds were set here for any values at or beyond the usual limits of such assays
- condition label: source organism: Dengue virus 1 Singapore/S275/1990
# pKd = -log10(concentration in molar units)

INSERT INTO assay_data (seq_string, quantitative_result) VALUES
  ('KGEDGCWYGM', 5.73);

Proceeding to the next sequence to report its pKd.
input: Give me measured pKd, please, for this sequence: MEVTARWLWG
output: 5.43

* * *

- test target: HLA-B*07:02
- test description: IEDB peptide-MHC binding, purified MHC/direct/fluorescence; filed as Kd, often an IC50 or EC50 that approximates it; bounds were set here for any values at or beyond the usual limits of such assays
- condition label: source organism: Yersinia pestis
endpoint label: Kd (nM)
Give the value in nM but do not write nM after it.

input: Give me measured Kd, please, for this sequence: TPFEVETRL
output: 836

* * *

- test target: HLA-B*57:01
- test description: IEDB peptide-MHC binding, purified MHC/direct/fluorescence; filed as Kd, often an IC50 or EC50 that approximates it; bounds were set here for any values at or beyond the usual limits of such assays
- condition label: source organism: Entamoeba histolytica HM-1:IMSS
pKd: −log10 of the molar value.
endpoint label: pKd

input: Look up and report measured pKd (HLA-B*57:01) for the following sequence: SSTDQQEWM
output: ≤ 4.70

* * *

- test target: HLA-B*83:01
- test description: IEDB peptide-MHC binding, purified MHC/competitive/fluorescence; filed as Kd, often an IC50 or EC50 that approximates it; bounds were set here for any values at or beyond the usual limits of such assays
- condition label: source organism: Homo sapiens
endpoint label: Kd (nM)
Give the value in nM but do not write nM after it.

input: Give me measured Kd, please, for this sequence: MPMKGRFPI
output: 69
